# Test name: Pharmacokinetic experiment in male SD rats (oral, intravenous, transdermal)
# Type: in vivo, rat
# Condition info: rat, plasma, intravenous group
Property: clearance (mL/min/kg)

molecular_string=CC(C)S(=O)(=O)N1CC(CC#N)(n2cc(-c3ncnc4[nH]ccc34)c(N)n2)C1 value_reported=69.2

###

# Test name: Pharmacokinetic experiment in male SD rats (oral, intravenous, transdermal)
# Assay type: in vivo, rat
# Condition info: male, SD, rat, plasma, po, oral group (gavage), read-out: AUC0-inf
Property: AUC(0-inf) (ng·h/mL)

compound="CC(C)S(=O)(=O)N1CC(CC#N)(n2cc(-c3ncnc4[nH]ccc34)c(N)n2)C1 [Example 1]" property=AUC(0-inf) value_reported=941

###

# Test name: Solubility of crystal forms in 20% propylene glycol at 32° C. over time
# Type: physicochemical
# Condition info: aqueous with cosolvent or surfactant or cyclodextrin, thermodynamic from solid
# From the text: Solubility Investigation of Different Crystal Forms
Property: solubility at 18 h (µg/mL)

molecular_string=CC(C)S(=O)(=O)N1CC(CC#N)(n2cc(-c3ncnc4[nH]ccc34)c(N)n2)C1 value_reported=20.2

###

# Test name: Pharmacokinetic experiment in male SD rats (oral, intravenous, transdermal)
# Type: in vivo, rat
# Condition info: male, SD, rat, plasma, po, oral group (gavage), read-out: Tmax
Property: Tmax

molecular_string=CC(C)S(=O)(=O)N1CC(CC#N)(n2cc(-c3ncnc4[nH]ccc34)c(N)n2)C1 property=Tmax value_reported="2.67 h"

###

# Test name: Solubility measurement at different pH (37° C., 24 h)
# Type: physicochemical
# Condition info: 37 °C, pH 6.8, aqueous buffer, thermodynamic from solid, pH 6.8, 37° C., 24 h; read-out: solubility, concentration
Property: solubility at 24 h (µg/mL)

molecular_string=CC(C)S(=O)(=O)N1CC(CC#N)(n2cc(-c3ncnc4[nH]ccc34)c(N)n2)C1 value_reported=1.2

###

# Test name: Pharmacokinetic experiment in male SD rats (oral, intravenous, transdermal)
# Format: in vivo, rat
# Condition info: male, SD, rat, plasma, iv, intravenous group
Property: half-life (h)

molecular_string=CC(C)S(=O)(=O)N1CC(CC#N)(n2cc(-c3ncnc4[nH]ccc34)c(N)n2)C1 value_reported=2.49

###

# Test name: Solubility measurement at different pH (37° C., 24 h)
# Type: physicochemical
# Condition info: 37 °C, pH 7, aqueous buffer, thermodynamic from solid, pH 7.0, 37° C., 24 h; read-out: solubility, concentration
Property: solubility at 24 h (µg/mL)

molecular_string=CC(C)S(=O)(=O)N1CC(CC#N)(n2cc(-c3ncnc4[nH]ccc34)c(N)n2)C1 property="solubility at 24 h" value_reported=1.3

###

# Test name: Pharmacokinetic experiment in male SD rats (oral, intravenous, transdermal)
# Assay type: in vivo, rat
# Condition info: male, SD, rat, plasma, po, oral group (gavage)
Property: half-life (h)

molecular_string=CC(C)S(=O)(=O)N1CC(CC#N)(n2cc(-c3ncnc4[nH]ccc34)c(N)n2)C1 unit_of_measurement=h value_reported=5.33

###

# Test name: Pharmacokinetic experiment in male SD rats (oral, intravenous, transdermal)
# Format: in vivo, rat
# Condition info: male, SD, rat, plasma, po, oral group (gavage), read-out: Cmax
Property: Cmax (ng/mL)

compound="CC(C)S(=O)(=O)N1CC(CC#N)(n2cc(-c3ncnc4[nH]ccc34)c(N)n2)C1 [Example 1]" value_reported=111

These measurements were taken from patent US20250163055A1.
